molecular target: viral kinase pUL-97 (Human cytomegalovirus, UniProt P16788); construct: The pUL-97 gene was cloned into a baculovirus vector; GST (glutathione S-transferase) (N); made in house; host or cells: Sf9 insect cells, baculovirus; assay: UL97 kinase assay on Immobilon plate; type: biochemical; conditions: inhibition of UL 97 kinase activity; class by IC50 / % inhibition at 10 or 100 μM; read-out: Activity Class [A, B, C]
Sequence (P16788 whole entry): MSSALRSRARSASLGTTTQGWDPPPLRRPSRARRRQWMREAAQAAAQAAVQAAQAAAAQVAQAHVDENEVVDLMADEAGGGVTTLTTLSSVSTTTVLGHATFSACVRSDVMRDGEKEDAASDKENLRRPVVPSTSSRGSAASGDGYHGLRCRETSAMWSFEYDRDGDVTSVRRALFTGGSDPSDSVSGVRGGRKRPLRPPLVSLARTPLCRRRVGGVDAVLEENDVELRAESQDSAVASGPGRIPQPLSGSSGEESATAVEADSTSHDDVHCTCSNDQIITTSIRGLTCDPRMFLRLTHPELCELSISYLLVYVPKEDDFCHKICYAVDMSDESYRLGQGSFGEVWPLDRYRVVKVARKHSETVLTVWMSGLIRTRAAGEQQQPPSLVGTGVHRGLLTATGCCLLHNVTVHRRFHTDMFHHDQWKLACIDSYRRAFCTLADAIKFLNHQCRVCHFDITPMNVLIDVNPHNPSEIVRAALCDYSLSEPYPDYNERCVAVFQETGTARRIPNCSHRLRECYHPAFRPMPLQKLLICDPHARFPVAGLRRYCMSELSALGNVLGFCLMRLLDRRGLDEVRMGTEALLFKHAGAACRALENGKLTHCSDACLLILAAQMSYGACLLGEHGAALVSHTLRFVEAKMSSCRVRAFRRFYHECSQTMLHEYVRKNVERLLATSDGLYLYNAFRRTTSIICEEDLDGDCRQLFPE
pIC50: −log10 of the molar value.
experimental_readout: pIC50

See these solved cases before continuing.
compound: Clc1cccc(N2CCN(c3cncc(-c4ccoc4)n3)CC2)c1
subject_of_test: viral kinase pUL-97 (Human cytomegalovirus, UniProt P16788)
experimental_readout: pIC50
recorded_value: 5.00 to 6.00

compound: Fc1cccc(-c2cncc(N3CCN(c4ccccc4)CC3)n2)c1
subject_of_test: viral kinase pUL-97 (Human cytomegalovirus, UniProt P16788)
experimental_readout: pIC50
recorded_value: 4.00 to 5.00

compound: Fc1ccc(N2CCN(c3cncc(-c4ccc(F)c(Cl)c4)n3)CC2)c(F)c1
subject_of_test: viral kinase pUL-97 (Human cytomegalovirus, UniProt P16788)
experimental_readout: pIC50
recorded_value: 4.00 to 5.00

compound: c1cc(N2CCN(c3cncc(-c4ccsc4)n3)CC2)ccn1
subject_of_test: viral kinase pUL-97 (Human cytomegalovirus, UniProt P16788)
experimental_readout: pIC50
recorded_value: 5.00 to 6.00

compound: COc1ccc(N2CCN(c3cncc(-c4ccc(CN)cc4)n3)CC2)cc1OC
subject_of_test: viral kinase pUL-97 (Human cytomegalovirus, UniProt P16788)
experimental_readout: pIC50
recorded_value: 4.00 to 5.00

Provide pIC50 values for the following items, in order.
1. CC(=O)c1ccc(N2CCN(c3cncc(-c4csc5ccccc45)n3)CC2)cc1
2. c1ccc2cc(-c3cncc(N4CCN(c5ccncc5)CC4)n3)ccc2c1
3. Fc1ccc(N2CCN(c3cncc(-c4ccc(C(F)(F)F)cc4)n3)CC2)cc1
4. CC(=O)c1ccc(-c2cncc(N3CCN(c4ccncc4)CC3)n2)cc1

["5.00 to 6.00", "> 6.00", "5.00 to 6.00", "5.00 to 6.00"]

For every listed record, write down its pIC50.
1. NC(=O)c1ccc(-c2cncc(NCCc3c[nH]c4ccccc34)n2)cc1
2. COc1ccccc1N1CCN(c2cncc(-c3ccc(C(N)=O)cc3)n2)CC1
3. Oc1ccc(-c2cncc(Nc3ccc(F)c(Cl)c3)n2)cc1
4. CC(=O)c1ccc(N2CCN(c3cncc(-c4cccc(C)c4)n3)CC2)cc1
5. Fc1ccc(-c2cncc(N3CCN(c4ccccn4)CC3)n2)c(F)c1

1: > 6.00; 2: > 6.00; 3: > 6.00; 4: 4.00 to 5.00; 5: 4.00 to 5.00

Below is a list of compounds. For each, state its recorded pIC50.
1. CC(=O)c1ccccc1-c1cncc(N2CCN(c3ccc(F)cc3F)CC2)n1
2. Fc1cc(-c2cncc(N3CCN(c4ccccc4F)CC3)n2)ccc1-c1ccccc1
3. COc1ccc(N2CCN(c3cncc(-c4cccc(C#N)c4)n3)CC2)cc1OC
4. COc1ccc(Cl)cc1-c1cncc(N2CCN(c3ccccc3)CC2)n1

["5.00 to 6.00", "4.00 to 5.00", "4.00 to 5.00", "4.00 to 5.00"]

All values here come from patent US20080194574A1.
